Molecular target: T1, cynomolgus monkey GPVI extracellular domain fused at its C-terminus to human IgG1 Fc (GPVI-Fc) (cynomolgus monkey; human)
T1 construct: also called cyGPVI-2; cyGPVI
Assay: Competition ELISA (MSD): cynomolgus GPVI-Fc preincubated with Fab, then on coated CRP-XL (competitor)
OBSERVABLE: Max. inhibition at 200 nM Fab [%] (%)
Write it as a number; the unit % goes unstated.

Example entries begin here.
Answer with reported Max. inhibition at 200 nM Fab [%] of Fab #2 comprising a modified heavy chain constant region (Fab, V domains shown, Human Fab from the Ylanthia library; produced in HKB11 cells; also called Fab #2 mod; HC) VH: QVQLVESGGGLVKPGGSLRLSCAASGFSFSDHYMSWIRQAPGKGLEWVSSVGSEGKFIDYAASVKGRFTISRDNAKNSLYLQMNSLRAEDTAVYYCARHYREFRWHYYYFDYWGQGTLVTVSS VL: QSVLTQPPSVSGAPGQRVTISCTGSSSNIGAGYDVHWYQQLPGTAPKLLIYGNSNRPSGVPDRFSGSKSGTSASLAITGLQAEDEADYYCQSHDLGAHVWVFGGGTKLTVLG
100

Answer with reported Max. inhibition at 200 nM Fab [%] of Fab #3 comprising a modified heavy chain constant region (Fab, V domains shown, Human Fab from the Ylanthia library; produced in HKB11 cells; also called Fab #3 mod; HC) VH: QVQLVESGGGLVKPGGSLRLSCAASGFSFGDYYVSWIRQAPGKGLEWVSAIGGSGSAVQYAESVKGRFTISRDNAKNSLYLQMNSLRAEDTAVYYCARHYREFRWHYYYFDYWGQGTLVTVSS VL: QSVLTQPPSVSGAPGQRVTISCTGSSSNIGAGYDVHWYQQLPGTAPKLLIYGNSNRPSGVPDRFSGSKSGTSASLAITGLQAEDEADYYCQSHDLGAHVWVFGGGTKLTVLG
100

Answer with reported Max. inhibition at 200 nM Fab [%] of Reference Control Antibody RefFab #1 (humanized GPVI antibody of WO2011073954A2, SANOFI) (Fab, V domains shown, Cloned into mammalian Fab expression vectors; a glycine-serine linker (G4S)2 was added to the C-terminus of the Fab heavy chain) VH: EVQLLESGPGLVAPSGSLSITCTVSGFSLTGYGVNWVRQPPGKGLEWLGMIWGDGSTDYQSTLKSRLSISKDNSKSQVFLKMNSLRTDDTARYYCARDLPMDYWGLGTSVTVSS VL: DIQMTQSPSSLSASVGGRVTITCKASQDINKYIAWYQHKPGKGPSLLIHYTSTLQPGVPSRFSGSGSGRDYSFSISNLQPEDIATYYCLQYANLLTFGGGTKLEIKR
100

Shift focus to the following entry.
Answer with reported Max. inhibition at 200 nM Fab [%] of Fab #1 comprising a modified heavy chain constant region (Fab, V domains shown, Human Fab from the Ylanthia library; produced in HKB11 cells; also called Fab #1 mod; HC) VH: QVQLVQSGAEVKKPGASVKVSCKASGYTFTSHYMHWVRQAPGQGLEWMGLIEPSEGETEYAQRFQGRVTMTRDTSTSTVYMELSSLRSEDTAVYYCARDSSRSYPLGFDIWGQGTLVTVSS VL: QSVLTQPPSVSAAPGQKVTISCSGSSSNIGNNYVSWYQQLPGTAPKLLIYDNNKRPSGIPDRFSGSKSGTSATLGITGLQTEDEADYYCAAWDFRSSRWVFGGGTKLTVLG
59
